Consider the following binders and their measured max. MFI readings.
- target-system: cell surface-expressed H3N2 WN/05 HA trimer (influenza A virus A/Wisconsin/67/2005 (H3N2))
- procedure-text: flow cytometry, HA-expressing 293T
Record the value in MFI, omitting the unit from your answer.

| binder | result-units | max. MFI |
| --- | --- | --- |
| S07 (antibody, V domains shown) VH: EVQLVESGGGLVQPGGSLRLSCAASGFTINSSGIHWVRQAPGKGLEWVASIGPSWGSTYYADSVKGRFTISADTSKNTAYLQMNSLRAEDTAVYYCARFGIGDIDVMDYWGQGTLVTVSS VL: DIQMTQSPSSLSASVGDRVTITCRASQDVWGYVAWYQQKPGKAPKLLISYASFLYSGVPSRFSGSGSGTDFTLTISSLQPEDFATYYCQQYFNWPVTFGQGTKVEIKR | MFI | 410 |
| P25 (antibody, V domains shown) VH: EVQLVESGGGLVQPGGSLRLSCAASGFTISNGGIHWVRQAPGKGLEWVAGIGPYGGYTYYADSVKGRFTISADTSKNTAYLQTNSLRAEDTAVYYCARFYGYSGIMDYWGQGTLVTVSS VL: DIQMTQSPSSLSASVGDRVTITCRASQDVWGYVAWYQQKPGKAPKLLISGSRSLYSGVPSRFSGSGSGTDFTLTISSLQPEDFATYYCQQYYNYPITFGQGTKVEIKR | MFI | 152 |
| S29 (antibody, V domains shown) VH: EVQLVESGGGLVQPGGSLRLSCAASGFTISDYWIHWVRQAPGKGLEWVASIWPSGGYTYYADSVKGRFTISADTSKNTAYLQMNSLRAEDTAVYYCARFNWIVGHYMDYWGQGTLVTVSS VL: DIQMTQSPSSLSASVGDRVTITCRASQDVFGGVAWYQQKPGKAPKLLIYWSSWLYSGVPSRFSGSGSGTDFTLTISSLQPEDFATYYCQQYYDGPITFGQGTKVEIKR | MFI | 188 |
| C05 (antibody, V domains shown) VH: PVQLQESGGGLVQPGESLRLSCVGSGSSFGESTLSYYAVSWVRQAPGKGLEWLSIINAGGGDIDYADSVEGRFTISRDNSKETLYLQMTNLRVEDTGVYYCAKHMSMQQVVSAGWERADLVGDAFDVWGQGTMVTVSS VL: DIQLTQSPSSLSASVGDRVTLTCQASQDIRKFLNWYQQKPGKGPKLLIYDASNLQRGVPSRFSGGGSGTDFTLIISSLQPEDVGTYYCQQYDGLPFTFGGGTKVEIKR | MFI | 14600 |

Shift focus to the following entry.
q: Need max. MFI of S10 (antibody, V domains shown) VH: EVQLVESGGGLVQPGGSLRLSCAASGFTIGGYGIHWVRQAPGKGLEWVASIGPSWGFTFYADSVKGRFTISADTSKNTAYLQMNSLRAEDTAVYYCARFNWVINGVTDYWGQGTLVTVSS VL: DIQMTQSPSSLSASVGDRVTITCRASQDVSYYVAWYQQKPGKAPKLLIFWSTFLYSGVPSRFSGSGSGTDFTLTISSLQPEDFATYYCQQYYDSPMTFGQGTKVEIKR , thanks.
a: 511

Taken from patent US20210070843A1.
